The measured values listed here are drawn from patent US8071600B2.

Where a name gives a salt, the structure may show the parent alone.
measurementLabel: melting point

Prompt line: Output measured melting point for this item: c1cc(N2CCN(CCCCOc3ccncc3)CC2)c2ccsc2c1 (as salt: hydrochloride) [Example 80]
Response line: 183 to 185 °C

Prompt line: Report melting point, nothing else, for this compound: COc1cc(C(N)=O)cc(OC)c1OCCCN1CCN(c2cccc3sccc23)CC1 [Example 243]
Response line: 147.5 to 148 °C

Prompt line: State, in one line, measured melting point of CNC(=O)c1cc(C)c(OCCCN2CCN(c3cccc4sccc34)CC2)c(OC)c1 [Example 252]
Response line: 141.5 to 142.5 °C

Prompt line: Complete the entry with melting point for CNC(=O)c1cnc(OCCCN2CCN(c3cccc4sccc34)CC2)cn1 [Example 61]
Response line: 116.5 to 118 °C

Prompt line: Query melting point for CCS(=O)(=O)Nc1ccc(OCCCN2CCN(c3cccc4sccc34)CC2)cc1 (as salt: hydrochloride) [Example 345]
Response line: 174 to 176 °C

Prompt line: Quickly give me recorded melting point for Cl.c1cc(N2CCN(CCCOc3ccc4c(c3)CCN4)CC2)c2ccsc2c1
Response line: 222.4 to 223.9 °C

Prompt line: Indicate the recorded melting point value for this compound: COc1cc(N)cc(C)c1OCCCN1CCN(c2cccc3sccc23)CC1 [Example 9]
Response line: 155 to 158 °C

Prompt line: Provide only the value of recorded melting point for CCNC(=O)c1csc(OCCCN2CCN(c3cccc4sccc34)CC2)n1 (as salt: hydrochloride) [Example 73]
Response line: 151 to 153.5 °C

----------
Where a name gives a salt, the structure may show the parent alone.
Answer each item with its documented melting point.

Prompt line: Please report melting point for the following molecule: COc1cc(NC(=O)CN)cc(C)c1OCCCN1CCN(c2cccc3sccc23)CC1 (as salt: hydrochloride)
Response line: 268 °C (dec.)

Prompt line: Annotate the molecule Cn1cnc2ccc(OCCCN3CCN(c4cccc5sccc45)CC3)cc2c1=O (as salt: hydrochloride) with its measured melting point.
Response line: 252.9 to 254.3 °C

Prompt line: Give the value of melting point reported for the following: COC(=O)N1CCN(c2cc(CO)c(OCCCN3CCN(c4cccc5sccc45)CC3)c(OC)c2)CC1
Response line: 128 to 130 °C

Prompt line: Retrieve melting point measured for COc1cc(N2CCN(C(C)=O)CC2)cc(C)c1OCCCN1CCN(c2cccc3sccc23)CC1 (as salt: hydrochloride) and print it.
Response line: 257 to 261 °C (dec.)

Prompt line: Hello, please tell me recorded melting point for this one: CN1CCOc2cc(OCCCN3CCN(c4cccc5sccc45)CC3)ccc21.Cl
Response line: 248.1 to 249.6 °C

Prompt line: State, in one line, measured melting point of COC(=O)N1CCN(c2cc(C=O)c(OCCCN3CCN(c4cccc5sccc45)CC3)c(OC)c2)CC1 (as salt: hydrochloride)
Response line: 225 °C (dec.)

Prompt line: Fill in reported melting point for this entry: COc1cc(NC=O)cc(C)c1OCCCN1CCN(c2cccc3sccc23)CC1.Cl
Response line: 247.5 to 253 °C (dec.)

----------
target: Dopamine D2 receptor (Rattus norvegicus, UniProt P61169); assay: Dopamine D2 receptor binding assay ([3H]-raclopride); conditions: Dopamine D2 receptor binding test, rat corpus striatum membrane, Ki calculated from IC50 by Cheng-Prussoff formula
Sequence (P61169 whole entry): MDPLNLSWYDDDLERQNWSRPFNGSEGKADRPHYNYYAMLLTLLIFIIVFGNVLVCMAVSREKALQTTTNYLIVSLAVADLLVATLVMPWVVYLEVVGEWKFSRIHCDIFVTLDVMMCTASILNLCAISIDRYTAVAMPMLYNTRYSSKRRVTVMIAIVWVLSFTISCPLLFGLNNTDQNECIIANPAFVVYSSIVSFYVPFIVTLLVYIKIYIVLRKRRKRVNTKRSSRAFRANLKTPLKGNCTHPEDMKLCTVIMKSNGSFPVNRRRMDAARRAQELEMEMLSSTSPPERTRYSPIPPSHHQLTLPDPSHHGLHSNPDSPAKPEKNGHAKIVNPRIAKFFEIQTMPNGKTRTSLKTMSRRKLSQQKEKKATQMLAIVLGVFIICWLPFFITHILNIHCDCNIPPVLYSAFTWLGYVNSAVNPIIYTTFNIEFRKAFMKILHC
Structures can show the parent of a compound that is named as a salt.
measurementLabel: Ki
Hey, just the number and the unit after it is fine.

Prompt line: Write down Ki measured for item CN(C)c1cc(OCCCCN2CCN(c3cccc4sccc34)CC2)n(C)n1
Response line: 1.4 nM

Prompt line: Fill in reported Ki for this entry: NC(=O)Cc1ccc(OCCCN2CCN(c3cccc4sccc34)CC2)cc1
Response line: 1.9 nM

Prompt line: Return value of Ki for input COc1cc(C(N)=O)cc(OC)c1OCCCN1CCN(c2cccc3sccc23)CC1 , no commentary.
Response line: 0.2 nM

Prompt line: Consider the compound COc1cc(N2CCOC2=O)cc(CO)c1OCCCN1CCN(c2cccc3sccc23)CC1 . State its measured Ki.
Response line: 0.1 nM

Prompt line: Specify Ki for CNC(=O)c1ccc(OC)c(OCCCN2CCN(c3cccc4sccc34)CC2)c1 and stop.
Response line: 0.3 nM

Prompt line: Annotate the compound CN(C)CCc1ccc(OCCCN2CCN(c3cccc4sccc34)CC2)cc1 with its measured Ki.
Response line: 0.5 nM

Prompt line: For the compound COC(=O)N(C)c1cc(C)c(OCCCN2CCN(c3cccc4sccc34)CC2)c(OC)c1 [Example 17, hydrochloride] , give its reported Ki.
Response line: 0.6 nM

Prompt line: Report Ki for O=c1[nH]c2ccc(OCCCN3CCN(c4cccc5sccc45)CC3)cc2[nH]1
Response line: 1 nM
